Measured %Inh, listed per entry for reference.
# Test system: OSR1
# Construct: gene OXSR1
# COND: concentration: 1 μM, replicates: in singlicate; n = 1

Examples from the recorded data:
> print(dat)
                                   compound  obs.value
1  C[C@@H]1CCN(C(=O)CO)C[C@@H]1N(C)c1ncnc2[nH]ccc12         0%
2      Nc1nc(-c2cccnc2)c(-c2ccnc3ccccc23)s1        11%
3  O=C(Nc1ccccc1F)NC1CCN(c2ccnc(Nc3ccc(F)cc3)n2)C1 (stereo not shown)         0%
4  Cc1cccc(-c2nc(Nc3ccc4[nH]nnc4c3)c3ccccc3n2)n1         0%
5  FC(F)(F)c1ccc(-c2nn3ncccc3c2-c2ccnc(Nc3cccc(C(F)(F)F)c3)n2)cc1         0%
6  Cc1ccc(NC(=O)c2cccc(C#N)c2)cc1-c1ccc(C(=O)Nc2ccncc2)cc1        31%

Please report the recorded %Inh for Cl.Fc1ccccc1COc1ccc(Nc2ncnc3ccc(-c4nnc(C(F)(F)F)o4)cc23)cc1Cl . 0%

So what's the measured %Inh for this one? CNc1nccc(-c2c(-c3ccc(F)cc3)ncn2CCCN2CCOCC2)n1 27%

Please report the recorded %Inh for Nc1nc(-c2ccc3c(N)n[nH]c3c2)cc(N2CCC[C@@H](C(=O)Nc3ccccc3)C2)n1.O=C(O)C(F)(F)F.O=C(O)C(F)(F)F . 3%

Look up %Inh: CC(C)(C)c1ccc(-n2cnc3c(N)ncnc32)cc1 16%

Please give the measured %Inh for this compound: Cn1cc(-c2ccc3c(c2)CCN3C(=O)Cc2cccc(C(F)(F)F)c2)c2c(N)ncnc21 12%

// %Inh lookup, key: c1ccc(-c2ccc3c(-c4ccnc(Nc5ccc6c(c5)OCCO6)n4)cnn3n2)cc1 0%

Give the measured %Inh of CCc1nc(-c2cccc(C)c2)c(-c2ccnc(NC(=O)c3ccccc3)c2)s1 . 10%

---

Entries and their %Inh values follow.
# System: RAF1
# COND: concentration: 1 μM, replicates: in singlicate; n = 1
Give the value; after it, write the unit.

Look up %Inh: C[C@H]1CC[C@@H](C(=O)Nc2ccccc2)CN1c1cc(-c2ccc3c(N)n[nH]c3c2)nc(N)n1 6%

GET /values?readout=%Inh&item= CCc1nc(-c2cccc(C)c2)c(-c2ccnc(NC(=O)c3ccccc3)c2)s1 22%

For FC(F)(F)c1ccc(-c2nn3ncccc3c2-c2ccnc(Nc3cccc(C(F)(F)F)c3)n2)cc1 , what is its reported %Inh? 0%

Which measured %Inh value corresponds to Fc1cccc(COc2ccc(Nc3ncnc4cc[nH]c34)cc2Cl)c1 ? 4%

Item c1ccc(-c2ccc3c(-c4ccnc(Nc5ccc6c(c5)OCCO6)n4)cnn3n2)cc1 has what recorded %Inh? 20%

Which value of %Inh has been reported for Oc1ccc2ncnc(Nc3ccc(OCc4ccccc4)cc3)c2c1 in the records? 18%

Requested read-out: %Inh. Entry: CS(=O)(=O)CCNCc1nc(-c2ccc3ncnc(Nc4ccc(OCc5cccc(F)c5)c(Cl)c4)c3c2)cs1.Cl 1%

Which measured %Inh value corresponds to COc1ccc(NC(=O)c2ccc(-c3cc(-c4nnc(C)o4)ccc3C)cc2)cc1 ? 6%

---

# System: JNK3;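 note: kd values determined as follow-up on hits from a single-replicate KINOMEscan panel screen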
# Construct: gene MAPK10
QUANTITY_KIND: pKd
For clarity, pKd is expressed as the negative log10 of concentration in mol/L.

Field request: pKd | item: COC(=O)c1c(-c2ccccc2)c2cc(Cl)ccc2c(=O)n1Cc1ccc(S(C)(=O)=O)cc1 7.85
